Measured values drawn from patent US5140018A for this set.

Tested on: Aspergillus niger ATCC 16404
Test: In vitro antifungal MIC, Aspergillus niger ATCC 16404
Format: cell-based
Conditions: ATCC16404; Aspergillus niger ATCC 16404; 35°-37° C., 48 hours; read-out: MIC
MIC vs 0.8 µg/mL: less than gives YES; not less than gives NO.

hey, is MIC for CCOC(CCCN1Sc2ccccc2[S+]1[O-])OCC (centres unmarked) [Example 25] lower than 0.8 µg/mL or not?
NO

hey, is MIC for CN(C)CCCN1Sc2ccccc2[S+]1[O-] (centres unmarked) [Example 23] lower than 0.8 µg/mL or not?
NO

hey, is MIC for [O-][S+]1c2ccccc2SN1C1C2CC3CC(C2)CC1C3 (centres unmarked) [Example 29] lower than 0.8 µg/mL or not?
NO

hey, is MIC for CN1Sc2ccccc2[S+]1[O-] (centres unmarked) [Example 2, 2-methyl-1,3,2-benzodithiazole-1-oxide] lower than 0.8 µg/mL or not?
NO

hey, is MIC for CCCCCCCCCCN1Sc2ccccc2[S+]1[O-] (centres unmarked) [Example 8, 2-n-decyl-1,3,2-benzodithiazole-1-oxide] lower than 0.8 µg/mL or not?
NO

hey, is MIC for [O-][S+]1c2ccccc2SN1Cc1ccc(Cl)cc1Cl (centres unmarked) [Example 36] lower than 0.8 µg/mL or not?
NO

hey, is MIC for [O-][S+]1c2ccccc2SN1Cc1ccccc1 (centres unmarked) [Example 35, 2-benzyl-1,3,2-benzodithiazole-1-oxide] lower than 0.8 µg/mL or not?
YES

hey, is MIC for [O-][S+]1c2ccccc2SN1CCc1ccccc1 (centres unmarked) [Example 1] lower than 0.8 µg/mL or not?
NO

hey, is MIC for CCCCCCCCN1Sc2ccccc2[S+]1[O-] (centres unmarked) [Example 6, 2-n-octyl-1,3,2-benzodithiazole-1-oxide] lower than 0.8 µg/mL or not?
YES

----------
What MIC was measured for each of the following?
Test system: Aspergillus niger ATCC 16404
Assay: In vitro antifungal MIC, Aspergillus niger ATCC 16404
Assay type: cell-based
Settings: ATCC16404; Aspergillus niger ATCC 16404; 35°-37° C., 48 hours; read-out: MIC
Numbers only; they are read as µg/mL.

Checklist item: MIC tested on Aspergillus niger ATCC 16404, entry [O-][S+]1c2ccccc2SN1C1CCCCCCC1 (stereo not shown) , value?
0.78

Checklist item: MIC tested on Aspergillus niger ATCC 16404, entry [O-][S+]1c2ccccc2SN1c1ccccc1 (stereo not shown) [Example 30, 2-phenyl-1,3,2-benzodithiazole-1-oxide] , value?
12.5

Checklist item: MIC tested on Aspergillus niger ATCC 16404, entry CCCCCN1Sc2ccccc2[S+]1[O-] (stereo not shown) [Example 4, 2-n-pentyl-1,3,2-benzodithiazole-1-oxide] , value?
0.39

Checklist item: MIC tested on Aspergillus niger ATCC 16404, entry CS(=O)(=O)OCCN1Sc2ccccc2[S+]1[O-] (stereo not shown) , value?
12.5

Checklist item: MIC tested on Aspergillus niger ATCC 16404, entry O=C(O)COCCN1Sc2ccccc2[S+]1[O-] (stereo not shown) , value?
25

Checklist item: MIC tested on Aspergillus niger ATCC 16404, entry C=CCN1Sc2ccccc2[S+]1[O-] (stereo not shown) [Example 10, 2-allyl-1,3,2-benzodithiazole-1-oxide] , value?
0.2

Checklist item: MIC tested on Aspergillus niger ATCC 16404, entry [O-][S+]1c2ccccc2SN1CCN1CCCCC1 (stereo not shown) , value?
3.12
